- test: Inhibition of Trypanosoma brucei LeuRS preincubated for 20 mins followed by ATP addition measured after 15 mins in presence of [14C]leucine by scintillation counting method
Listing of recorded IC50 by entry.

line notation	IC50 [µM]
COc1cccc(C(=O)NC(=S)Nc2cccc(S(=O)(=O)NC(=O)[C@@H](N)CC(C)C)c2)c1	6.7
O=C(COc1ccc(Br)cc1Cl)NC(=S)Nc1cccc(S(=O)(=O)NC(=O)[C@H](Cc2ccccc2)NC(=O)OCc2ccccc2)c1	13.7
CC(C)C[C@H](N)C(=O)NS(=O)(=O)c1cccc(NC(=S)NC(=O)c2ccccc2)c1	7.6
CC(C)C[C@H](NC(=O)OCc1ccccc1)C(=O)NS(=O)(=O)c1cccc(NC(=S)NC(=O)COc2ccc(Br)cc2Cl)c1	16.7
COc1ccc(C(=O)NC(=S)Nc2cccc(S(=O)(=O)NC(=O)[C@@H](N)CC(C)C)c2)cc1	5.6
NS(=O)(=O)c1ccc(NC(=S)NC(=O)COc2ccc(Br)cc2Cl)cc1	174
CC(C)C[C@H](N)C(=O)NS(=O)(=O)c1cccc(NC(=S)NC(=O)COc2ccc(Br)cc2Cl)c1	1.1

====

- target or system: Leucine--tRNA ligase (Escherichia coli (strain K12), UniProt P07813)
- Sequence (P07813 whole entry): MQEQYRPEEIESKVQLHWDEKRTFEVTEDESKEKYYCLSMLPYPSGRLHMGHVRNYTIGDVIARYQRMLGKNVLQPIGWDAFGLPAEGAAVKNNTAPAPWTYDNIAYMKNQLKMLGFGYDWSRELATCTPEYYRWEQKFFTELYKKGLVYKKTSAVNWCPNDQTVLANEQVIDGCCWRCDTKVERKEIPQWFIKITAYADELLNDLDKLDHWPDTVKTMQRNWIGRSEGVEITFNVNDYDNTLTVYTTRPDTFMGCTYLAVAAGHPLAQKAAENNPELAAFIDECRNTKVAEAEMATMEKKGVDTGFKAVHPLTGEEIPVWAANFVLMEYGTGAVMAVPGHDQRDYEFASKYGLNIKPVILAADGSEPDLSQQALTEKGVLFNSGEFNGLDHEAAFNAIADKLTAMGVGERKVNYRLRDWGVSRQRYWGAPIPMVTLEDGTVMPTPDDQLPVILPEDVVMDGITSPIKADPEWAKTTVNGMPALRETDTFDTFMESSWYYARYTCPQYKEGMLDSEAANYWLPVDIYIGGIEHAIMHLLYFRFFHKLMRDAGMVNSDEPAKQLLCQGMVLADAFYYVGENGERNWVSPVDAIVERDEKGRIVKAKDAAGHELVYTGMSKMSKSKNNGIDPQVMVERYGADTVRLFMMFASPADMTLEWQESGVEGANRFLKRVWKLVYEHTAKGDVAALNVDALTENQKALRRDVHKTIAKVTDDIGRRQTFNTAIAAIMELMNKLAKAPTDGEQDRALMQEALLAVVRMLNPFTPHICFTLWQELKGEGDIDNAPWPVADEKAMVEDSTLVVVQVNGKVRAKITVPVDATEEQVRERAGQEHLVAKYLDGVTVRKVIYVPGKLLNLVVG
- test: Binding affinity to Escherichia coli LeuRS
pKd: −log10 of the molar value.

line notation	pKd
Cc1cc(-c2cccc(S(=O)(=O)CC(=O)[C@@H](N)CC(C)C)c2)ncn1	8.85
